# target: T1, human PD-L1 protein with histidine tag (ACROBiosystems #PD-1-H5258) (human, UniProt Q9NZQ7 19-238)
# T1 construct: Bought protein; also called His PD-L1; human PD-L1 proteins; not shown: histidine tag
# T1 sequence (Q9NZQ7 19-238 limits assumed): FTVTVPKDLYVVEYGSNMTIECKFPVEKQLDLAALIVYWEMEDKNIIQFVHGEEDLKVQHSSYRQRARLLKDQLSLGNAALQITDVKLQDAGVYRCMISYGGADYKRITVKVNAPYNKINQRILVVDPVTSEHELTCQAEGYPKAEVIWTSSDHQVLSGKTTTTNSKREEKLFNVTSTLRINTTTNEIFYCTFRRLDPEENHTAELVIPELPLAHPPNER
# assay.summary: BLI (Octet Red96e); His-tagged human PD-L1 captured on HIS1K sensor, antibody at 60 nM; 1:1 fit
# Description: In this example, affinity determination was performed on the affinity-matured mutants of PR002082 using an Octet Red96e instrument. […] The binding kinetics between the antigen and the antibody was analyzed by the biolayer interferometry (BLI) technique using an Octet molecular interaction analyzer (ForteBio, model: Octet Red96e). When the affinity of the antigen for the antibody was determined, the rotation speed of the sensor was set at 1000 rpm/min. […]
property.measured: kon (M⁻¹ s⁻¹)

Examples from the recorded data:
{"binder": "PR005875 (antibody, human IgG1, V domains shown, The HC entry is used) VH: QVQLVESGGGVVQPGMSLRLSCAASGFTFSSYGMYWVRQAPGKGQEWVASIRYTGTEKHYADSVKGRFTISRDNSKNTLYLEMNSLRVEDTAVYYCAKNRALFGVIPDASDIRGQGTMVTVSS", "endpoint.value": 172000}
{"binder": "PR006247 (antibody, human IgG1, V domains shown, The HC entry is used) VH: QVQLVESGGGVVQPGMSLRLSCAASGFDFSSYGMYWVRQAPGKGQEWVASIRYTGTEKHYADSVKGRFTISRDNSKNTLYLEMNSLRVEDTAVYYCAKNRALFGVIPDASDIRGQGTMVTVSS", "endpoint.value": 185000}
{"binder": "PR006246 (antibody, human IgG1, V domains shown, The HC entry is used) VH: QVQLVESGGGVVQPGMSLRLSCAASGFDFSSYGMYWVRQAPGKGQEWVASIRYTGTEKHYADSVKGRFTISRDNSKNTLYLEMNSLRVEDTAVYYCAKNRAIFGVIPDDSDIRGQGTMVTVSS", "endpoint.value": 301000}
{"binder": "PR002082 (antibody, human IgG1, V domains shown, HCAb; also called PTM variant of PR000960 (N28T, N31S)) VH: QVQLVESGGGVVQPGMSLRLSCAASGFTFSSYGMYWVRQAPGKGQEWVAIIWYDGTKKHYADSVKGRFTISRDNSKNTLYLEMNSLRVEDTAVYYCAKNRAIFGVVPDASDIRGQGTMVTVSS", "endpoint.value": 210000}
{"binder": "PR006248 (antibody, human IgG1, V domains shown, The HC entry is used) VH: QVQLVESGGGVVQPGMSLRLSCAASGFDFSSYGMYWVRQAPGKGQEWVASIRYTGTEKHYADSVKGRFTISRDNSKNTLYLEMNSLRVEDTAVYYCAKNRALFGVIPDDSDIRGQGTMVTVSS", "endpoint.value": 182000}

[I] PR006245 (antibody, human IgG1, V domains shown, The HC entry is used) VH: QVQLVESGGGVVQPGMSLRLSCAASGFDFSSYGMYWVRQAPGKGQEWVASIRYTGTEKHYADSVKGRFTISRDNSKNTLYLEMNSLRVEDTAVYYCAKNRAIFGVVPDASDIRGQGTMVTVSS
[II] PR005869 (antibody, human IgG1, V domains shown, The HC entry is used) VH: QVQLVESGGGVVQPGMSLRLSCAASGFTFSSYGMYWVRQAPGKGQEWVAIIWYDGTKKHYADSVKGRFTISRDNSKNTLYLEMNSLRVEDTAVYYCAKNRALFGVIPDDSDIRGQGTMVTVSS
query: Sorting by kon in descending order, would I or II appear first? Please respond with the label that marks your chosen entry.
result: II

[a] PR005878 (antibody, human IgG1, V domains shown, The HC entry is used) VH: QVQLVESGGGVVQPGMSLRLSCAASGFTFSSYGMYWVRQAPGKGQEWVASIRYTGTEKHYADSVKGRFTISRDNSKNTLYLEMNSLRVEDTAVYYCAKNRALFGVIPDDSDIRGQGTMVTVSS
[b] PR005263 (antibody, human IgG1, V domains shown, The HC entry is used) VH: QVQLVESGGGVVQPGMSLRLSCAASGFTFSSYGMYWVRQAPGKGQEWVASIRYTGTEKHYADSVKGRFTISRDNSKNTLYLEMNSLRVEDTAVYYCAKNRAIFGVVPDASDIRGQGTMVTVSS
query: Sorting by kon in descending order, would a or b appear first? Please respond with the label that marks your chosen entry.
result: a
